Every entry's value here was drawn from patent US5110904A.

Target: LH release (Rattus norvegicus, UniProt P30969)
Test: In vivo LH release in castrated rats
Details: rat, iv, dose producing half-maximal LH release, i.v., time integrated LH response, read-out: ED50 ug/kg i.v.
Non-standard residues stand in square brackets, D forms with d. Residues, ends and D or L forms follow the SMILES beside them. pGlu = O=C1CC[C@@H](C(=O)O)N1; NMeS = CN[C@@H](CO)C(=O)O
Listed next: entries and their corresponding ED50.
# output: bare number, implied unit µg/kg

COMPOUND: CC(C)C[C@H](NC(=O)CNC(=O)[C@H](Cc1ccc(O)cc1)NC(=O)[C@H](CO)NC(=O)[C@H](Cc1c[nH]c2ccccc12)NC(=O)[C@H](Cc1c[nH]cn1)NC(=O)[C@@H]1CCC(=O)N1)C(=O)N[C@@H](CCCNC(=N)N)C(=O)N1CCC[C@H]1C(=O)NCC(N)=O [LHRH, reference compound]
UNIT_DESCRIPTOR: µg/kg
ED50: 100

Could you now consider this next compound?
Input line: Quick check: ED50 of CCNC(=O)[C@@H]1CCCN1C(=O)[C@H](CCCNC(=N)N)NC(=O)[C@H](CC(C)C)NC(=O)[C@@H](CC(C)C)NC(=O)[C@H](Cc1ccc(O)cc1)NC(=O)[C@H](CO)N(C)C(=O)[C@H](Cc1c[nH]c2ccccc12)NC(=O)[C@H](Cc1c[nH]cn1)NC(=O)[C@@H]1CCC(=O)N1 [Ex. 1] ([pGlu]HW[NMeS]Y[dL]LRP-NHEt) ?
Output line: 7.2

====

Target: LHRH receptors (Rattus norvegicus, UniProt P30969)
Sequence (P30969 1-327): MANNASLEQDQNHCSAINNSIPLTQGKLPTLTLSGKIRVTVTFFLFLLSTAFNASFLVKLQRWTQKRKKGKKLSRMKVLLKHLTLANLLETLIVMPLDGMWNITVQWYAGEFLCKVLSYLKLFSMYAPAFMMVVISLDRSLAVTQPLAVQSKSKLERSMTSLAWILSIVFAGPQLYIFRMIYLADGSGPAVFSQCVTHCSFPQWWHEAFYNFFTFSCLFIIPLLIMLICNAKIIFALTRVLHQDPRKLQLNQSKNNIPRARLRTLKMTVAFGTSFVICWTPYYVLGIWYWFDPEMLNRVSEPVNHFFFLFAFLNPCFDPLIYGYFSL
Test: Radioligand receptor binding assay, rat pituitary membranes
Details: radioiodinated [D-Leu6-des Gly10]-LHRH ethyl amide 50 pM, 2 hours at 4° C., read-out: Receptor Binding pkI (converted)
Non-standard residues stand in square brackets, D forms with d. Residues, ends and D or L forms follow the SMILES beside them. dPhe(4-Cl) = N[C@H](Cc1ccc(Cl)cc1)C(=O)O; d1Nal = N[C@H](Cc1cccc2ccccc12)C(=O)O; d2Nal = N[C@H](Cc1ccc2ccccc2c1)C(=O)O; Lys(iPr) = CC(C)NCCCC[C@H](N)C(=O)O; NMeY = CN[C@@H](Cc1ccc(O)cc1)C(=O)O; d3Pal = N[C@H](Cc1cccnc1)C(=O)O; d2Thi = N[C@H](Cc1cccs1)C(=O)O; Sar = CNCC(=O)O
Listed next: entries and their corresponding Ki.

Solved entries:
COMPOUND: CC(=O)NCC(=O)N[C@H](Cc1ccc(Cl)cc1)C(=O)N[C@H](Cc1cccc2ccccc12)C(=O)N[C@@H](CO)C(=O)N(C)[C@@H](Cc1ccc(O)cc1)C(=O)N[C@H](CCCCN)C(=O)N[C@@H](CC(C)C)C(=O)N[C@@H](CCCNC(=N)N)C(=O)N1CCC[C@H]1C(=O)N[C@H](C)C(N)=O [Ex. 53] (Ac-G[dPhe(4-Cl)][d1Nal]S[NMeY][dK]LRP[dA]-NH2)
Ki: 0.0132 nM
//
COMPOUND: CC(=O)N[C@H](Cc1ccc(Cl)cc1)C(=O)N[C@H](Cc1ccc(Cl)cc1)C(=O)N[C@H](Cc1cccs1)C(=O)N[C@@H](CO)C(=O)N[C@@H](Cc1ccc(O)cc1)C(=O)N[C@H](CCCCN)C(=O)N[C@@H](CC(C)C)C(=O)N[C@@H](CCCNC(=N)N)C(=O)N1CCC[C@H]1C(=O)N(C)CC(N)=O [Ex. 58] (Ac-[dPhe(4-Cl)][dPhe(4-Cl)][d2Thi]SY[dK]LRP[Sar]-NH2)
Ki: 0.00871 nM

Input line: Kindly state the measured Ki obtained for CC(=O)N(C)CC(=O)N[C@H](Cc1ccc(Cl)cc1)C(=O)N[C@H](Cc1cccc2ccccc12)C(=O)N[C@@H](CO)C(=O)N(C)[C@@H](Cc1ccc(O)cc1)C(=O)N[C@H](Cc1cccnc1)C(=O)N[C@@H](CC(C)C)C(=O)N[C@@H](CCCNC(=N)N)C(=O)N1CCC[C@H]1C(=O)N[C@H](C)C(N)=O [Ex. 50] (Ac-[Sar][dPhe(4-Cl)][d1Nal]S[NMeY][d3Pal]LRP[dA]-NH2) with LHRH receptors (Rattus norvegicus, UniProt P30969).
Output line: 0.0138 nM

Input line: Here is the next compound: CC(=O)N[C@H](Cc1ccc2ccccc2c1)C(=O)N[C@H](Cc1ccc(Cl)cc1)C(=O)N[C@H](Cc1cccnc1)C(=O)N[C@@H](CO)C(=O)N(C)[C@@H](Cc1ccc(O)cc1)C(=O)N[C@H](Cc1cccnc1)C(=O)N[C@@H](CC(C)C)C(=O)N[C@@H](CCCCNC(C)C)C(=O)N1CCC[C@H]1C(=O)N[C@H](C)C(N)=O [Ex. 61] (Ac-[d2Nal][dPhe(4-Cl)][d3Pal]S[NMeY][d3Pal]L[Lys(iPr)]P[dA]-NH2)
Output line: 0.049 nM

Input line: Here is the next compound: CC(=O)N[C@H](Cc1ccc(Cl)cc1)C(=O)N[C@H](Cc1ccc(Cl)cc1)C(=O)N[C@H](Cc1cccs1)C(=O)N[C@@H](CO)C(=O)N(C)[C@@H](Cc1ccc(O)cc1)C(=O)N[C@H](CCCCN)C(=O)N[C@@H](CC(C)C)C(=O)N[C@@H](CCCNC(=N)N)C(=O)N1CCC[C@H]1C(=O)N[C@H](C)C(N)=O [Ex. 39] (Ac-[dPhe(4-Cl)][dPhe(4-Cl)][d2Thi]S[NMeY][dK]LRP[dA]-NH2)
Output line: 0.0355 nM

====

Target: LHRH receptors (Rattus norvegicus)
Assay: Radioligand receptor binding assay, rat pituitary membranes
Settings: radioiodinated [D-Leu6-des Gly10]-LHRH ethyl amide 50 pM, 2 hours at 4° C., read-out: Receptor Binding pkI (converted)
Non-standard residues stand in square brackets, D forms with d. Residues, ends and D or L forms follow the SMILES beside them. *: point of attachment. dNMe1Nal = CN[C@H](Cc1cccc2ccccc12)C(=O)O; dPhe(4-Cl) = N[C@H](Cc1ccc(Cl)cc1)C(=O)O; d1Nal = N[C@H](Cc1cccc2ccccc12)C(=O)O; d(hCit) = NC(=O)NCCCC[C@@H](N)C(=O)O; Lys(iPr) = CC(C)NCCCC[C@H](N)C(=O)O; NMeY = CN[C@@H](Cc1ccc(O)cc1)C(=O)O; dBta = N[C@H](Cc1csc2ccccc12)C(=O)O; d2Thi = N[C@H](Cc1cccs1)C(=O)O; NMeL = CN[C@@H](CC(C)C)C(=O)O; pGlu = O=C1CC[C@@H](C(=O)O)N1; Nicotinoyl = O=C(c1cccnc1)*; NMeS = CN[C@@H](CO)C(=O)O; azaGly = NNC(=O)O; Sar = CNCC(=O)O; For = O=C*
QUANTITY: Ki (nM)
# output: bare number, implied unit nM

MOLECULE: CC(=O)N(C)CC(=O)N[C@H](Cc1ccc(Cl)cc1)C(=O)N[C@H](Cc1cccc2ccccc12)C(=O)N[C@@H](CO)C(=O)N(C)[C@@H](Cc1ccc(O)cc1)C(=O)N[C@H](CCCCNC(=O)c1cccnc1)C(=O)N[C@@H](CC(C)C)C(=O)N[C@@H](CCCCNC(C)C)C(=O)N1CCC[C@H]1C(=O)N[C@H](C)C(N)=O [Ex. 63] (Ac-[Sar][dPhe(4-Cl)][d1Nal]S[NMeY][dK](Nicotinoyl)L[Lys(iPr)]P[dA]-NH2)
Ki [nM]: 0.0447

MOLECULE: CCNC(=O)[C@@H]1CCCN1C(=O)[C@H](CCCN=C(N)N)NC(=O)[C@H](CC(C)C)NC(=O)[C@@H](CC(C)C)NC(=O)[C@H](Cc1ccc(O)cc1)NC(=O)[C@H](CO)N(C)C(=O)[C@H](Cc1c[nH]c2ccccc12)NC(=O)[C@H](Cc1c[nH]cn1)NC(=O)[C@@H]1CCC(=O)N1 [Ex. 1] ([pGlu]HW[NMeS]Y[dL]LRP-NHEt)
Ki [nM]: 1.17

MOLECULE: CC(=O)N(C)CC(=O)N[C@H](Cc1ccc(Cl)cc1)C(=O)N[C@H](Cc1cccs1)C(=O)N[C@@H](CO)C(=O)N(C)[C@@H](Cc1ccc(O)cc1)C(=O)N[C@H](CCCCN)C(=O)N[C@@H](CC(C)C)C(=O)N[C@@H](CCCNC(=N)N)C(=O)N1CCC[C@H]1C(=O)N[C@H](C)C(N)=O [Ex. 49] (Ac-[Sar][dPhe(4-Cl)][d2Thi]S[NMeY][dK]LRP[dA]-NH2)
Ki [nM]: 0.0316

MOLECULE: CC(=O)N[C@H](Cc1ccc(Cl)cc1)C(=O)N[C@H](Cc1ccc(Cl)cc1)C(=O)N[C@H](Cc1csc2ccccc12)C(=O)N[C@@H](CO)C(=O)N(C)[C@@H](Cc1ccc(O)cc1)C(=O)N[C@H](CCCCN)C(=O)N[C@@H](CC(C)C)C(=O)N[C@@H](CCCN=C(N)N)C(=O)N1CCC[C@H]1C(=O)N[C@H](C)C(N)=O [Ex. 54] (Ac-[dPhe(4-Cl)][dPhe(4-Cl)][dBta]S[NMeY][dK]LRP[dA]-NH2)
Ki [nM]: 0.0339

MOLECULE: CC(=O)N[C@H](Cc1ccc(Cl)cc1)C(=O)N[C@H](Cc1ccc(Cl)cc1)C(=O)N(C)[C@H](Cc1cccc2ccccc12)C(=O)N[C@@H](CO)C(=O)N(C)[C@@H](Cc1ccc(O)cc1)C(=O)N[C@H](CCCCN)C(=O)N[C@@H](CC(C)C)C(=O)N[C@@H](CCCNC(=N)N)C(=O)N1CCC[C@H]1C(=O)N[C@H](C)C(N)=O [Ex. 56] (Ac-[dPhe(4-Cl)][dPhe(4-Cl)][dNMe1Nal]S[NMeY][dK]LRP[dA]-NH2)
Ki [nM]: 0.676

MOLECULE: CC(=O)N[C@H](Cc1ccc(Cl)cc1)C(=O)N[C@H](Cc1ccc(Cl)cc1)C(=O)N[C@H](Cc1cn(C=O)c2ccccc12)C(=O)N[C@@H](CO)C(=O)N(C)[C@@H](Cc1ccc(O)cc1)C(=O)N[C@H](CCCCN)C(=O)N[C@@H](CC(C)C)C(=O)N[C@@H](CCCNC(=N)N)C(=O)N1CCC[C@H]1C(=O)N[C@H](C)C(N)=O [Ex. 55] (Ac-[dPhe(4-Cl)][dPhe(4-Cl)][dW](For)S[NMeY][dK]LRP[dA]-NH2)
Ki [nM]: 0.0219

MOLECULE: CC(=O)N[C@H](Cc1ccc(Cl)cc1)C(=O)N[C@H](Cc1ccc(Cl)cc1)C(=O)N[C@H](Cc1cccc2ccccc12)C(=O)N[C@@H](CO)C(=O)N(C)[C@@H](Cc1ccc(O)cc1)C(=O)N[C@H](CCCCNC(N)=O)C(=O)N[C@@H](CC(C)C)C(=O)N[C@@H](CCCNC(=N)N)C(=O)N1CCC[C@H]1C(=O)N[C@H](C)C(N)=O [Ex. 59] (Ac-[dPhe(4-Cl)][dPhe(4-Cl)][d1Nal]S[NMeY][d(hCit)]LRP[dA]-NH2)
Ki [nM]: 0.0977

MOLECULE: CCNC(=O)[C@@H]1CCCN1C(=O)[C@H](CCCN=C(N)N)N(C)C(=O)[C@H](CC(C)C)NC(=O)[C@@H](Cc1c[nH]c2ccccc12)NC(=O)[C@H](Cc1ccc(O)cc1)NC(=O)[C@H](CO)NC(=O)[C@H](Cc1c[nH]c2ccccc12)NC(=O)[C@H](Cc1cnc[nH]1)NC(=O)[C@@H]1CCC(=O)N1
Ki [nM]: 0.0562

Input line: Kindly state the measured Ki obtained for CC(=O)N[C@H](Cc1ccc(Cl)cc1)C(=O)N[C@H](Cc1ccc(Cl)cc1)C(=O)N[C@H](Cc1cccs1)C(=O)N[C@@H](CO)C(=O)N(C)[C@@H](Cc1ccc(O)cc1)C(=O)N[C@H](CCCCNC(=O)c1cccnc1)C(=O)N(C)[C@@H](CC(C)C)C(=O)N[C@@H](CCCNC(=N)N)C(=O)N1CCC[C@H]1C(=O)N[C@H](C)C(N)=O [Ex. 68] (Ac-[dPhe(4-Cl)][dPhe(4-Cl)][d2Thi]S[NMeY][dK](Nicotinoyl)[NMeL]RP[dA]-NH2) with LHRH receptors (Rattus norvegicus).
Output line: 0.12

Input line: Here is the next molecule: CC(=O)NNC(=O)N[C@H](Cc1ccc(Cl)cc1)C(=O)N[C@H](Cc1cccc2ccccc12)C(=O)N[C@@H](CO)C(=O)N(C)[C@@H](Cc1ccc(O)cc1)C(=O)N[C@H](CCCCNC(=O)c1cccnc1)C(=O)N[C@@H](CC(C)C)C(=O)N[C@@H](CCCCNC(C)C)C(=O)N1CCC[C@H]1C(=O)N[C@H](C)C(N)=O [Ex. 65] (Ac-[azaGly][dPhe(4-Cl)][d1Nal]S[NMeY][dK](Nicotinoyl)L[Lys(iPr)]P[dA]-NH2)
Output line: 0.0575
